// MBC lookup, one value per entry
- Test system: Klebsiella oxytoca
- Experimental details: Bactericidal activity against Klebsiella oxytoca incubated overnight
- Type: functional
Give just the number in µg/mL; leave the unit off.

{"columns": ["Substance", "Unit info", "Reported value"],
 "data": [
  ["H-KKCIAKAILKKAKKLLKDLVNP-OH", "µg/mL", 50],
  ["H-KKCIAKAILKKAKKLLKKLVNP-OH", "µg/mL", 50],
  ["H-FKWKSVLKGVKGFVKGYF-OH", "µg/mL", 25]
]}

Form field MBC, entry COLISTIN : 12.5

###

// MBC lookup, one value per entry
- System: Pseudomonas aeruginosa
- Experimental details: Bactericidal activity against Pseudomonas aeruginosa incubated overnight
- Type: functional
Give just the number in µg/mL; leave the unit off.

{"columns": ["Substance", "Unit info", "MBC"],
 "data": [
  ["H-FKWKSVLKGVKGFVKGYF-OH", "µg/mL", 50]
]}

Form field MBC, entry H-KKCIAKAILKKAKKLLKKLVNP-OH : 50

Just for reference, ChEMBL document CHEMBL5346873 is where these values come from.
